# Test system: VEGF
# Protocol details: Hypoxia-inducible endogenous VEGF expression ELISA in HeLa cells
# Type: cell-based
# Condition parameters: Homo sapiens, HeLa, compounds 191-239, hypoxic conditions, VEGF protein by ELISA, read-out: ELISA Activity EC50
pEC50: −log10 of the molar value.
Readout: pEC50

Compound | pEC50
OC(COc1ccc(C2CCCc3c2[nH]c2ccc(Br)cc32)cc1)Cn1cncn1 (centres unmarked) [Compound 203] | 7.40 to 8.00
Cc1ccc(C2c3[nH]c4ccc(Br)cc4c3CCC2O)cc1 (centres unmarked) [Compound 237] | 6.00 to 6.70
OC(COc1ccc(C2CCCc3c2[nH]c2ccc(Br)cc32)cc1)CN1CCSCC1 (centres unmarked) [Compound 199] | > 8.00
COCCN(CCOC)CC(O)COc1ccc(C2CCCCc3c2[nH]c2ccc(Cl)cc32)cc1 (centres unmarked) [Compound 234] | > 8.00

Fill in the blank: the reported pEC50 of Cc1cc(C(=O)NC2CCCc3c2[nH]c2ccc(Br)cc32)no1 (centres unmarked) [Compound 191] is ____.
> 8.00
